- Measured Target: hA3AR (Homo sapiens)
- Assay Notes: Radioligand binding
- Measurement Context: selectivity ratio of Ki values
The entries below come with measured hA1/hA3 values attached.

These recorded examples may help you get a feel for the data.
Cn1cc2c(nc(NC(=O)Nc3ccc(CC(=O)NCCCCNC(=O)OC(C)(C)C)cc3)n3nc(-c4ccco4)nc23)n1 : >2890
Cn1cc2c(nc(NC(=O)Nc3ccc(CC(=O)NCCOCCOCCN)cc3)n3nc(-c4ccco4)nc23)n1.O=C(O)C(F)(F)F : >520
Cn1cc2c(nc(NC(=O)Nc3ccc(CC(=O)NCCOCCOCCNC(=O)OC(C)(C)C)cc3)n3nc(-c4ccco4)nc23)n1 : >133.6
Cn1cc2c(nc(NC(=O)Nc3ccc(CC(=O)NCCCOCCOCCOCCCN)cc3)n3nc(-c4ccco4)nc23)n1.O=C(O)C(F)(F)F : >970
Cn1cc2c(nc(NC(=O)Nc3ccc(CC(=O)NCCCCCNC(=O)OC(C)(C)C)cc3)n3nc(-c4ccco4)nc23)n1 : >2237

Kindly note: hA3AR (Homo sapiens), "Cn1cc2c(nc(NC(=O)Nc3ccc(CC(=O)NCCCOCCOCCOCCCNC(=S)Nc4ccc(-c5c6ccc(=O)cc-6oc6cc(O)ccc56)c(C(=O)O)c4)cc3)n3nc(-c4ccco4)nc23)n1" , hA1/hA3 value reported: >48

hA3AR (Homo sapiens) hA1/hA3 of "C#CCCCCCC(=O)Nc1nc2nn(C)cc2c2nc(-c3ccco3)nn12" is >781

Entry "Cn1cc2c(nc(NC(=O)Nc3ccc(CC(=O)NCCCNC(=S)Nc4ccc(-c5c6ccc(=O)cc-6oc6cc(O)ccc56)c(C(=O)O)c4)cc3)n3nc(-c4ccco4)nc23)n1" : hA1/hA3 on hA3AR (Homo sapiens) = >96

The observed hA1/hA3 for "Cn1cc2c(nc(NC(=O)Nc3ccc(CC(=O)NCCCCN)cc3)n3nc(-c4ccco4)nc23)n1" when tested with hA3AR (Homo sapiens) stands at >1666

So the reported hA1/hA3 for "Cn1cc2c(nc(NC(=O)Nc3ccc(CC(=O)NCCCNC(=O)OC(C)(C)C)cc3)n3nc(-c4ccco4)nc23)n1" , on hA3AR (Homo sapiens), turned out to be >3636

----------
- Measured Target: hA3AR (Homo sapiens, UniProt P0DMS8)
- Sequence (P0DMS8 whole entry): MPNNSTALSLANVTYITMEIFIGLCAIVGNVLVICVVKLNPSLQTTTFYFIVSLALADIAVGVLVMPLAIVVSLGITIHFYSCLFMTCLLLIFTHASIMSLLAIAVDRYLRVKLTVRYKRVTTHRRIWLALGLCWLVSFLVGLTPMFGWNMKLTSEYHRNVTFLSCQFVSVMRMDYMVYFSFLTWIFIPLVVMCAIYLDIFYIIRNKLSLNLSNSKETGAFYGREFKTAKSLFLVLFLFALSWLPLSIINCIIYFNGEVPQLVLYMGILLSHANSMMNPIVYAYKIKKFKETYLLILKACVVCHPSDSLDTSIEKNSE
- Assay Notes: Radioligand binding
- Measurement Context: selectivity ratio of Ki values
Endpoint: hA1/hA3

hA1/hA3 reading for Cn1cc2c(nc(NC(=O)Nc3ccc(CC(=O)NCCCCCN)cc3)n3nc(-c4ccco4)nc23)n1 [Compound 11] : >3759

# compound Cn1cc2c(nc(NC(=O)Nc3ccc(CC(=O)NCCOCCOCCNC(=S)Nc4ccc(-c5c6ccc(=O)cc-6oc6cc(O)ccc56)c(C(=O)O)c4)cc3)n3nc(-c4ccco4)nc23)n1 [Compound 17] ; its hA1/hA3 = >73

----------
- Measured Target: hA3AR (Homo sapiens, UniProt P0DMS8)
- Assay Notes: Radioligand binding
- Measurement Context: selectivity ratio of Ki values
Endpoint: hA1/hA3

The following compounds have reported results that may help.
Cn1cc2c(nc(NC(=O)Nc3ccc(CC(=O)NCCCN)cc3)n3nc(-c4ccco4)nc23)n1 : >1240
Cn1cc2c(nc(NC(=O)Nc3ccc(CC(=O)NCCCOCCOCCOCCCNC(=O)OC(C)(C)C)cc3)n3nc(-c4ccco4)nc23)n1 : >121.3
Cn1cc2c(nc(NC(=O)Nc3ccc(CC(=O)NCCCCCNC(=S)Nc4ccc(-c5c6ccc(=O)cc-6oc6cc(O)ccc56)c(C(=O)O)c4)cc3)n3nc(-c4ccco4)nc23)n1 : >103

Now for the compound whose hA1/hA3 we want.
Summary: "C#CCCC(=O)Nc1nc2nn(C)cc2c2nc(-c3ccco3)nn12" , hA3AR (Homo sapiens, UniProt P0DMS8), hA1/hA3 = >909
